test: In vivo pharmacokinetics, plasma concentration; parameters: species or system Mouse; conditions: mouse, in vivo; IP 25 mg/kg, DMSO solution, 0.33 h; read-out: Mouse plasma concentration
quantity.kind: concentration at 0.33 h (µM)

{"compound.structure": "CCn1c2ccc(Br)cc2c2cc(CNCc3ccccc3OC)ccc21", "measurement.units": "µM", "obs.value": 5.28}

====

test: In vivo pharmacokinetics, plasma concentration; set-up: species or system Mouse; conditions: mouse, in vivo; IV 5 mg/kg, Tween80 formulation, 0.17 h; read-out: Mouse plasma concentration
quantity.kind: concentration at 0.17 h (µM)

{"compound.structure": "CCn1c2ccc(Br)cc2c2cc(CNCc3ccccc3OC)ccc21", "obs.value": 2.05}

====

experiment: In vivo pharmacokinetics, plasma concentration; design: species or system Mouse; conditions: mouse, in vivo; IV 5 mg/kg, Tween80 formulation, 0.50 h; read-out: Mouse plasma concentration

{"compound.structure": "CCn1c2ccc(Br)cc2c2cc(CNCc3ccccc3OC)ccc21", "measurement.units": "nM", "concentration at 0.5 h": 2390}

====

test: In vivo pharmacokinetics, plasma concentration; design: species or system Mouse; settings: mouse, in vivo, ip, 25 mg/kg
quantity.kind: concentration at 0.33 h (µM)

{"compound": "CCn1c2ccccc2c2cc(CNCc3ccccc3OC)ccc21 [HLCL-61]", "quantity.kind": "concentration at 0.33 h", "measurement.units": "µM", "obs.value": 2.04}
{"compound": "CCn1c2ccccc2c2cc(NC(=N)Nc3ccc(S(C)(=O)=O)cc3)ccc21 [HLCL-7]", "quantity.kind": "concentration at 0.33 h", "measurement.units": "µM", "obs.value": 7.54}

====

system: MV411; assay: MTS growth inhibition assay; type: cell-based; details: Homo sapiens, MV4-11; MV411, FLT3-ITD+, 72 h; read-out: IC50 μM; 72 h

{"compound.structure": "CCn1c2ccccc2c2cc(CNCc3ccccc3OC)ccc21", "measurement.units": "µM", "IC50": 10.9}

====

Test: In vivo pharmacokinetics, plasma concentration
Set-up: species or system Mouse
Conditions: mouse, in vivo; IV 5 mg/kg, Tween80 formulation, 8.00 h; read-out: Mouse plasma concentration
Text: Pharmacokinetic data of compounds HLCL-7, HLCL-61, and HLCL-66 taken from an in vivo study is illustrated in Table 10. […]

{"molecule": "CCn1c2ccc(Br)cc2c2cc(CNCc3ccccc3OC)ccc21 [HLCL-65]", "measurement.units": "nM", "concentration at 8 h": 513}

====

assay: In vivo pharmacokinetics, plasma concentration; parameters: species or system Mouse; settings: mouse, in vivo, iv, 5 mg/kg

{"compound": "CCn1c2ccccc2c2cc(CNCc3ccccc3OC)ccc21 [HLCL-61]", "concentration at 0.17 h, nM": 1610}
{"compound": "CCn1c2ccccc2c2cc(NC(=N)Nc3ccc(S(C)(=O)=O)cc3)ccc21 [HLCL-7]", "concentration at 0.17 h, nM": 3070}

====

experiment: In vivo pharmacokinetics, plasma concentration; set-up: species or system Mouse; settings: mouse, in vivo, iv, 5 mg/kg
Measured concentration at 0.33 h of individual entries

{"molecule": "CCn1c2ccccc2c2cc(NC(=N)Nc3ccc(S(C)(=O)=O)cc3)ccc21 [HLCL-7]", "concentration at 0.33 h": "1500 nM"}
{"molecule": "CCn1c2ccccc2c2cc(CNCc3ccccc3OC)ccc21 [HLCL-61]", "concentration at 0.33 h": "702 nM"}
